Reference source: patent US20240166738A1

// % Protection from CPE lookup, one value per entry
- SYSTEM_UNDER_TEST: human TMEM106B (human, UniProt Q9NUM4 2-274); note: test concentration or dose not given here
- TEST: cell-based or functional assay
Report the figure along with its unit, number first.

{"BINDER": "TM-69 (antibody, V domains shown, mouse hybridoma mAb) VH: QVQLKESGPDLVQPSQTLSLTCTVSGFSFTSYGVHWVRQPPGKGLEWVGIMGWDDKKYYNSALKSRLSISRDTSKNQVFLKLSSLQTEDTAMYYCTREAGPYGMDYWGQGTSVTVSS VL: DVVMTQTPLSLPVSLGDQASISCRSSQSLVHSNGNTYLHWYLQKPGQSPKLLIYKVSNRFSGVPDRFSGSGSGTDFTLKISRVEAEDLGVYFCSQNTHVPLTFGAGTKLELK", "% Protection from CPE": "4.3%"}
{"BINDER": "TM-27 (antibody, V domains shown, mouse hybridoma mAb) VH: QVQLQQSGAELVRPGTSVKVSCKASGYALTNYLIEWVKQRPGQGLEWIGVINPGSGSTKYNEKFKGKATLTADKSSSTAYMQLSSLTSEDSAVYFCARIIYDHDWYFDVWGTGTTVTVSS VL: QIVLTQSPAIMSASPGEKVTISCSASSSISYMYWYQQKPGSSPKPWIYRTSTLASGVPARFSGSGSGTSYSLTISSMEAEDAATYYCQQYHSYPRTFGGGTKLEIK", "% Protection from CPE": "5.2%"}

Next binder, please.
Notebook: TM-85 (antibody, V domains shown, mouse hybridoma mAb) VH: QVQLQQPGAELVRAGTSVKLSCKASGYTFIGYWMHWVKQRPGRGLEWIGRIDPYSGDTRYNEKFKNKATLTVDKPSSTAYMQLSSLTSEDSAVYYCARYGLGHAMDYWGQGTSVTVSS VL: DIAMSQSQKFMSTSVGDRVSVTCKASQNVGTNVAWYQQKPGQSPKALIYSASYRYSGVPDRFTGSGSGTDFTLTISNVQSEDLAEYFCQQYNSYPLTFGAGTKLEMK , % Protection from CPE read as 5.2%
